- EXPERIMENTAL_TARGET: human FGFR2 IIIc variant protein (isoform 1: NP_000132), expressed on transfected cells (UniProt P21802 22-821)
- Sequence (P21802 22-821, change not shown): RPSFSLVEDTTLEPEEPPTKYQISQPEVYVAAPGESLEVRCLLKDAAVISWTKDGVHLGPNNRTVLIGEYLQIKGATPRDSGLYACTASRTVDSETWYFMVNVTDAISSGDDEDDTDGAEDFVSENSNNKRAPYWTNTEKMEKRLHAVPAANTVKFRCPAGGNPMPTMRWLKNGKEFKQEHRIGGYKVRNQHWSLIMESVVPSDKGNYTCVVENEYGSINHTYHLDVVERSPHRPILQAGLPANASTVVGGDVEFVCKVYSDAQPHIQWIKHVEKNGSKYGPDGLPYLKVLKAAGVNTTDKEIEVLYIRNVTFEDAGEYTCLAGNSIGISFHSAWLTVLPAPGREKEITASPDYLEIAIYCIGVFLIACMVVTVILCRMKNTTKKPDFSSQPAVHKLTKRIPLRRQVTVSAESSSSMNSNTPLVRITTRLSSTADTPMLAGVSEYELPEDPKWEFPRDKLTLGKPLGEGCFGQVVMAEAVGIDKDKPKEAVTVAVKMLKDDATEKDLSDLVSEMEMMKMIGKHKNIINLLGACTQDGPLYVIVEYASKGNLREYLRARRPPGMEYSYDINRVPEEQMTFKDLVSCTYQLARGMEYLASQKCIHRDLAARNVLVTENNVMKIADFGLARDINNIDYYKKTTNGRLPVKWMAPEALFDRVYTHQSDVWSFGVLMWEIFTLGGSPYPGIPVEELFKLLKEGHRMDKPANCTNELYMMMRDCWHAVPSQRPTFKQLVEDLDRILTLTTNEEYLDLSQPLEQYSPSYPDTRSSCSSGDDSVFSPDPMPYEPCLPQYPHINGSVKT
- METHOD_NOTES: Biacore
VALUE_KIND: pKd
To interpret pKd, take it as minus log10 of a concentration measured in moles per litre.

Query: Which measured pKd value corresponds to humanized anti-FGFR2 antibody hFR2-14_H6/L1 (antibody, V domains shown) VH: QVQLVQSGAEVKKPGASVKVSCKASGFTFSTSYMSWVRQAPGPSTEWMGWIYAGDGGTKYNQKFKGRVTLTVDKSTSTAYMELSSLRSEDTAVYYCATDAYGDWFTYWGQGTLVTVSS VL: DIQMTQSPSSLSASVGDRVTITCRASEDIYSNLAWYQQKPGKSPQLLIYDANILADGVPSRFSGSGSGTDYTLTISSLQPEDFATYYCQQYNNYPPFTFGQGTKVEIKR ?
Response: 8.82

Query: Which measured pKd value corresponds to humanized anti-FGFR2 antibody hFR2-14_H16/L1 (antibody, V domains shown) VH: QVQLVQSGAEVKKPGASVKVSCKASGFTFSTSYMSWVRQAPGPSTEWMGWIYAGDGGTKYNQKFKGRVTLTVDKSTSTAYMELSSLRSEDTAVYYCATDVYGDWFTYWGQGTLVTVSS VL: DIQMTQSPSSLSASVGDRVTITCRASEDIYSNLAWYQQKPGKSPQLLIYDANILADGVPSRFSGSGSGTDYTLTISSLQPEDFATYYCQQYNNYPPFTFGQGTKVEIKR ?
Response: 9.04

Query: Which measured pKd value corresponds to humanized anti-FGFR2 antibody hFR2-14_H13/L1 (antibody, V domains shown) VH: QVQLVQSGAEVKKPGASVKVSCKASGFTFSTSYMSWVRQAPGPSTEWMGWIYAGDGGTKYNQKFKGRVTLTVDKSTSTAYMELSSLRSEDTAVYYCATDMYGDWFTYWGQGTLVTVSS VL: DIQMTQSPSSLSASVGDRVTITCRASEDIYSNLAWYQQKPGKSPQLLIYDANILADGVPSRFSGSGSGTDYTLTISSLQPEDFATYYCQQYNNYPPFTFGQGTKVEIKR ?
Response: 9.17

Query: Which measured pKd value corresponds to humanized anti-FGFR2 antibody hFR2-14_H11/L1 (antibody, V domains shown) VH: QVQLVQSGAEVKKPGASVKVSCKASGFTFSTSYMSWVRQAPGPSTEWMGWIYAGDGGTKYNQKFKGRVTLTVDKSTSTAYMELSSLRSEDTAVYYCATDKYGDWFTYWGQGTLVTVSS VL: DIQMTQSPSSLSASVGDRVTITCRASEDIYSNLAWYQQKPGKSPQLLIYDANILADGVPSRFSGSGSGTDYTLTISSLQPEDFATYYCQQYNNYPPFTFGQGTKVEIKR ?
Response: 8.68
